# System: Rattus norvegicus
# procedure.details: Biodistribution in Rat liver after 30 minutes of iv administration; per g of tissue
# Assay type: ADME, organism-based
# experimental.conditions: in vivo, 0.5 h
The following molecules are listed with their measured Biodistribution values.
A number alone suffices; assume %.

{"molecule": "CCCCCCCCCCCCCCCC(=O)OC(COC(=O)CCc1c(I)cc(I)c(N)c1I)COC(=O)CCc1c(I)cc(I)c(N)c1I", "measurement.unit": "%", "Biodistribution": 5.82}
{"molecule": "CCCCCCCCCCCCCCCC(=O)OC(COC(=O)Cc1c(I)cc(I)c(N)c1I)COC(=O)Cc1c(I)cc(I)c(N)c1I", "measurement.unit": "%", "Biodistribution": 7.62}

Inquiry: Report Biodistribution for CCCCCCCCCCCCCCCC(=O)OC(COC(=O)C(CC)Cc1c(I)cc(I)c(N)c1I)COC(=O)C(CC)Cc1c(I)cc(I)c(N)c1I (stereo not drawn)
Reply text: 4.54

###

# Tested on: Rattus norvegicus
# procedure.details: Biodistribution in Rat heart after 24 hours of iv administration
# Format: ADME, organism-based
# experimental.conditions: in vivo
The following compounds are listed with their measured Biodistribution values.
A number alone suffices; assume %.

Reference set, count: 4
{"compound": "Nc1c(I)cc(I)c(CCCCCCCCCCCC(=O)OCC(COC(=O)CCCCCCCCCCCc2c(I)cc(I)c(N)c2I)OC(=O)CCCCCCCCCCCc2c(I)cc(I)c(N)c2I)c1I", "Biodistribution [%]": 0.05}
{"compound": "CCC(Cc1c(I)cc(I)c(N)c1I)C(=O)OCC(COC(=O)C(CC)Cc1c(I)cc(I)c(N)c1I)OC(=O)C(CC)Cc1c(I)cc(I)c(N)c1I (stereo unspecified)", "Biodistribution [%]": 0.1}
{"compound": "Nc1c(I)cc(I)c(CCC(=O)OCC(COC(=O)CCc2c(I)cc(I)c(N)c2I)OC(=O)CCc2c(I)cc(I)c(N)c2I)c1I", "Biodistribution [%]": 0.19}
{"compound": "CCCCCCCCCCCCCCCC(=O)OC(COC(=O)CCCCCCCCCCCc1c(I)cc(I)c(N)c1I)COC(=O)CCCCCCCCCCCc1c(I)cc(I)c(N)c1I", "Biodistribution [%]": 0.12}

Inquiry: Report Biodistribution for `CCCCCCCCCCCCCCCC(=O)OC(COC(=O)CCCCCCCCCCCCCCCCc1c(I)cc(I)c(N)c1I)COC(=O)CCCCCCCCCCCCCCCCc1c(I)cc(I)c(N)c1I`
Reply text: 0.03

Inquiry: Report Biodistribution for `Nc1c(I)cc(I)c(CCCCCCCCCCCCCCCCC(=O)OCC(COC(=O)CCCCCCCCCCCCCCCCc2c(I)cc(I)c(N)c2I)OC(=O)CCCCCCCCCCCCCCCCc2c(I)cc(I)c(N)c2I)c1I`
Reply text: 0.03

###

# Tested on: Rattus norvegicus
# procedure.details: Biodistribution in Rat lung after 5 minutes of iv administration
# Type: ADME, organism-based
# experimental.conditions: in vivo
metric.name: Biodistribution (%)
A number alone suffices; assume %.

Reference set, count: 5
{"molecule": "CCCCCCCCCCCCCCCC(=O)OC(COC(=O)CCCCCCCCCCCCCCCCc1c(I)cc(I)c(N)c1I)COC(=O)CCCCCCCCCCCCCCCCc1c(I)cc(I)c(N)c1I", "metric.name": "Biodistribution", "measurement.unit": "%", "endpoint.value": 1.45}
{"molecule": "Nc1c(I)cc(I)c(CCC(=O)OCC(COC(=O)CCc2c(I)cc(I)c(N)c2I)OC(=O)CCc2c(I)cc(I)c(N)c2I)c1I", "metric.name": "Biodistribution", "measurement.unit": "%", "endpoint.value": 6.69}
{"molecule": "CCC(Cc1c(I)cc(I)c(N)c1I)C(=O)OCC(COC(=O)C(CC)Cc1c(I)cc(I)c(N)c1I)OC(=O)C(CC)Cc1c(I)cc(I)c(N)c1I (stereo unspecified)", "metric.name": "Biodistribution", "measurement.unit": "%", "endpoint.value": 1.49}
{"molecule": "CCCCCCCCCCCCCCCC(=O)OC(COC(=O)CCCCCCCCCCCc1c(I)cc(I)c(N)c1I)COC(=O)CCCCCCCCCCCc1c(I)cc(I)c(N)c1I", "metric.name": "Biodistribution", "measurement.unit": "%", "endpoint.value": 1.38}
{"molecule": "Nc1c(I)cc(I)c(CCCCCCCCCCCCCCCCC(=O)OCC(COC(=O)CCCCCCCCCCCCCCCCc2c(I)cc(I)c(N)c2I)OC(=O)CCCCCCCCCCCCCCCCc2c(I)cc(I)c(N)c2I)c1I", "metric.name": "Biodistribution", "measurement.unit": "%", "endpoint.value": 1.08}

Inquiry: Report Biodistribution for `Nc1c(I)cc(I)c(CCCCCCCCCCCC(=O)OCC(COC(=O)CCCCCCCCCCCc2c(I)cc(I)c(N)c2I)OC(=O)CCCCCCCCCCCc2c(I)cc(I)c(N)c2I)c1I`
Reply text: 1.13
